Some compounds, each annotated with its measured pEC50.
target: human APJ receptor (Homo sapiens, UniProt P35414); construct: expressed in transfected cells; host or cells: HEK293; experiment: Intracellular cAMP Accumulation Assay (APJ hcAMP, HTRF); type: cell-based; settings: human APJ, cAMP accumulation; potency range class; read-out: hAPJ cAMP EC50 Potency range
pEC50: −log10 of the molar value.

Observed pEC50 on human APJ receptor (Homo sapiens, UniProt P35414), entry COc1cccc(OC)c1-n1c(-c2cccc(C)c2)nc(=O)c(C(=O)N2CCC(c3ncc(F)cc3F)C2)c1O (single isomer, unassigned) [Example 244] , equals 8.00 to 11.00

Observed pEC50 on human APJ receptor (Homo sapiens, UniProt P35414), entry COc1cccc(OC)c1-n1c(-c2cccc(C)c2)nc(=O)c(C(=O)N2CCC(c3ccccc3C#N)C2)c1O (single isomer, unassigned) [Example 242] , equals 8.00 to 11.00

Observed pEC50 on human APJ receptor (Homo sapiens, UniProt P35414), entry COc1cccc(OC)c1-n1c(-c2cnn(C)c2)nc(=O)c(C(=O)N2CCC(c3c(F)cccc3F)C2)c1O (single isomer, unassigned) [Example 249] , equals 8.00 to 11.00

Observed pEC50 on human APJ receptor (Homo sapiens, UniProt P35414), entry CCOCc1nc(=O)c(C(=O)N2CCC(c3c(F)cccc3F)C2)c(O)n1-c1c(OC)cccc1OC (single isomer, unassigned) [Example 353] , equals 8.00 to 11.00

Observed pEC50 on human APJ receptor (Homo sapiens, UniProt P35414), entry COc1cccc(OC)c1-n1c(-c2cccc(C)c2)nc(=O)c(C(=O)N2CCC(c3ncc(Cl)cc3F)C2)c1O (single isomer, unassigned) [Example 263] , equals 8.00 to 11.00

Observed pEC50 on human APJ receptor (Homo sapiens, UniProt P35414), entry COc1cccc(OC)c1-n1c(-c2ccnc(C)c2)nc(=O)c(C(=O)N2CCC(c3c(F)cccc3F)C2)c1O (single isomer, unassigned) [Example 257] , equals 8.00 to 11.00

###

Molecular target: human APJ receptor (Homo sapiens, UniProt P35414)
Construct: expressed in transfected cells; host or cells: HEK293
Sequence (P35414 1-380): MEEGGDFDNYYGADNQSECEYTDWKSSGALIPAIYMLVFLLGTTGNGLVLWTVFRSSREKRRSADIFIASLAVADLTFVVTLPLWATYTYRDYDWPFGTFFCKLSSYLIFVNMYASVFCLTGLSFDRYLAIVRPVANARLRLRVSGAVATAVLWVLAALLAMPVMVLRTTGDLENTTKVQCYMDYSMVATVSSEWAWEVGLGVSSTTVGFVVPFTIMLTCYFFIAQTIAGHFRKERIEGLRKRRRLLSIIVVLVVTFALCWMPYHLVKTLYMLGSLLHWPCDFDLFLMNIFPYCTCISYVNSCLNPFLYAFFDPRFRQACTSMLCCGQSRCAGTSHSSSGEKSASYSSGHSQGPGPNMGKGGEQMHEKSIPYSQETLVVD
Experiment: Intracellular cAMP Accumulation Assay (APJ hcAMP, HTRF)
Assay type: cell-based
Details: human APJ, cAMP accumulation; potency range class; read-out: hAPJ cAMP EC50 Potency range
Some compounds, each annotated with its measured EC50.

CCCCc1nc(=O)c(C(=O)N2CCC(c3ncc(Cl)cc3F)C2)c(O)n1-c1c(OC)cccc1OC (single isomer, unassigned) [Example 357] = 0.01 to 10 nM
CCCCc1nc(=O)c(C(=O)N2CCC(c3ncccc3F)C2)c(O)n1-c1c(OC)cccc1OC (single isomer, unassigned) = 0.01 to 10 nM
CCn1ccc(-c2nc(=O)c(C(=O)N3CCC(c4ncc(F)cc4F)C3)c(O)n2-c2cccc(C(C)C)c2)n1 (single isomer, unassigned) = 0.01 to 10 nM
CCCc1nc(O)c(C(=O)N2CC[C@H](c3ccccc3)C2)c(=O)n1[C@@H](COC)c1ccccc1 = 10 to 100 nM

response.value for CCn1ccc(-c2nc(=O)c(C(=O)N3CCC(c4ncc(Cl)cc4F)C3)c(O)n2[C@H](c2cc(F)cc(F)c2)C(C)C)n1 (single isomer, unassigned) (field: EC50) = 0.01 to 10 nM

response.value for CCCc1nc(=O)c(C(=O)N2CC[C@@H](c3ccccc3)C2)c(O)n1[C@@H](COC)c1ccccc1 (field: EC50) = 10 to 100 nM
